Exercise: state measured EC50 for each of the molecules provided.
Molecular target: full-length beta-catenin (Axin site) (Homo sapiens)
Construct: 15 nM full-length beta-catenin, 20 nM FITC labeled peptide in buffer
Test: Competition fluorescence polarization assay (Axin site probe)
Format: binding
Conditions: competition fluorescence polarization, Table 2; read-out: in vitro FP EC50
Numbered stars: 1 amine (or outer) side, 2 acyl side, 3 side chain; on linkers, the order of the positions; unused ones are H or OH. Bridge positions count the residues as written; N and C are the ends. Square brackets hold non-standard residues; d marks the D form. Peptide text beside a SMILES is read from it. 3Aminoazetidine3carboxyl = O=C(C1(N[*:1])CN([*:3])C1)[*:2]; dαMeOrn(Me) = CN(CCC[C@@](C)(N[*:1])C(=O)[*:2])[*:3]; X2 = O=C(OCC=CCOC(=O)[*:2])[*:1]

1. CC[C@H](C)[C@@H]1NC(=O)[C@H](Cc2c[nH]cn2)NC(=O)[C@H](C)NC(=O)[C@H](CC(=O)O)NC(=O)[C@H](CC(C)C)NC(=O)[C@H]([C@@H](C)CC)NC(=O)[C@](C)(NC(=O)[C@H](C)NC(C)=O)CCCC=CCOC(=O)N(C)CCC[C@@](C)(C(=O)N[C@@H](CCCNC(=N)N)C(=O)N[C@H](C(=O)N[C@@H](Cc2c[nH]c3ccccc23)C(N)=O)C(C)C)NC1=O (single isomer, unassigned) [FP0510c Isomer 1, Ac-A-R5-I-L-D-A-H-I-MH-R-V-W-NH2] : < 100 nM

Quick batch: EC50 for everything below.
1. CC[C@H](C)[C@@H]1NC(=O)[C@H](Cc2c[nH]cn2)NC(=O)[C@H](C)NC(=O)[C@H](CC(=O)O)NC(=O)[C@H](CC(C)C)NC(=O)[C@H]([C@@H](C)CC)NC(=O)[C@](C)(NC(=O)[C@H](C)NC(C)=O)CN(C)C(=O)OCC=CCCCCCC[C@@](C)(C(=O)N[C@@H](CCCNC(=N)N)C(=O)N[C@H](C(=O)N[C@@H](Cc2c[nH]c3ccccc23)C(N)=O)C(C)C)NC1=O (single isomer, unassigned) [FP0335c Isomer 1, Ac-A-ME-I-L-D-A-H-I-S8-R-V-W-NH2]
2. CC[C@H](C)[C@@H]1NC(=O)[C@H](Cc2c[nH]cn2)NC(=O)[C@H](C)NC(=O)[C@H](CC(=O)O)NC(=O)[C@H](CC(C)C)NC(=O)[C@H]([C@@H](C)CC)NC(=O)C2(NC(=O)[C@H](C)NC(C)=O)CN(C2)C(=O)OCC=CCOC(=O)N(C)CCC[C@](C)(C(=O)N[C@@H](CCCNC(=N)N)C(=O)N[C@H](C(=O)N[C@@H](Cc2c[nH]c3ccccc23)C(N)=O)C(C)C)NC1=O [FP0625c, Ac-A-MA-I-L-D-A-H-I-MI-R-V-W-NH2] (Ac-A[3Aminoazetidine3carboxyl]ILDAHI[dαMeOrn(Me)]RVW-NH2; linker 2-9 via X2)

Result string:
["100 to 500 nM", "100 to 500 nM"]

---

Target: full-length beta-catenin (Axin site) (Homo sapiens)
Construct: 15 nM full-length beta-catenin, 20 nM FITC labeled peptide in buffer
Sequence (P35222 1-781): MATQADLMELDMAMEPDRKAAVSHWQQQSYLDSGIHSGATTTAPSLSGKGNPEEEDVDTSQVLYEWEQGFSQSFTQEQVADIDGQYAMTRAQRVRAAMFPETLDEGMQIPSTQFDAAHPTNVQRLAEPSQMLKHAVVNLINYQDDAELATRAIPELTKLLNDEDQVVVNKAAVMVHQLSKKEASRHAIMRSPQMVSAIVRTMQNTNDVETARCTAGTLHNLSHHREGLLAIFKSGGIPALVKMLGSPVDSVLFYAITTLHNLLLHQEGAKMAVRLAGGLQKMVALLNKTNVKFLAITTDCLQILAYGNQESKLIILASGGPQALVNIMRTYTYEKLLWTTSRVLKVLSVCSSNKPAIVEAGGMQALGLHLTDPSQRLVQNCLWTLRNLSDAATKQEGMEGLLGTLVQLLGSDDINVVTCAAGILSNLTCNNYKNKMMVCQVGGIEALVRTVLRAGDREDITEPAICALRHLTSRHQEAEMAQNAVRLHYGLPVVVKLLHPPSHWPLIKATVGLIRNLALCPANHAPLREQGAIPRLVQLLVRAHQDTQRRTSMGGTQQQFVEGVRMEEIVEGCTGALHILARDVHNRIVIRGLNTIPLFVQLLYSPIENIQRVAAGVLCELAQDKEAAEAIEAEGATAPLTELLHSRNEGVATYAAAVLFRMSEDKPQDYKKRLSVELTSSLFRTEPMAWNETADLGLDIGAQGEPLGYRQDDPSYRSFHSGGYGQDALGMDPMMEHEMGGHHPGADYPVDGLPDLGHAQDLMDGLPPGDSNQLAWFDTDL
Experiment: Competition fluorescence polarization assay (Axin site probe)
Format: binding
Conditions: competition fluorescence polarization, Table 2; read-out: in vitro FP EC50
measurement-label: EC50

Examples with their reported EC50 follow.
1) CCC[C@H](NC(=O)[C@]12CCN(C1)C(=O)OCC=CCCCCCC[C@@](C)(NC(=O)[C@H](C)NC(C)=O)C(=O)N[C@@H]([C@@H](C)CC)C(=O)N[C@@H](CC(C)C)C(=O)N[C@@H](CC(=O)O)C(=O)N[C@@H](C)C(=O)N[C@@H](Cc1ccccn1)C(=O)N[C@@H]([C@@H](C)CC)C(=O)N2)C(=O)N[C@H](C(=O)N[C@@H](Cc1c[nH]c2ccccc12)C(N)=O)C(C)C (single isomer, unassigned) [FP0567c Isomer 2, Ac-A-R8-I-L-D-A-2pyr-I-MB-Nva-V-W-NH2] : > 5 µM
2) CC[C@H](C)[C@@H]1NC(=O)[C@](C)(NC(=O)[C@H](CCC(N)=O)NC(=O)[C@@H]2CCCN2C(C)=O)CCCCC=CCN2CC[C@](C(=O)N[C@@H](Cc3c[nH]cn3)C(=O)N[C@H](C(=O)N[C@@H](CCCNC(=N)N)C(=O)N[C@@H](CCCNC(=N)N)C(=O)N[C@H](C(=O)N[C@@H](Cc3c[nH]c4ccccc34)C(=O)N[C@@H](CCCNC(=N)N)C(N)=O)C(C)C)C(C)C)(C2)NC(=O)[C@H](CC(=O)O)NC(=O)[C@H](CC(C)C)NC1=O (single isomer, unassigned) [FP0767a, Ac-P-Q-R6-I-L-D-MC-H-V-R-R-V-W-R-NH2] : 0.5 to 5 µM

Now take the following molecule into account.
Query string: Give EC50 for the following molecule: CC[C@H](C)[C@@H]1NC(=O)[C@](C)(NC(=O)[C@H](CCC(N)=O)NC(=O)[C@@H]2CCCN2C(C)=O)CCCC=CCOC(=O)N(C)CCC[C@](C)(C(=O)N[C@@H](Cc2c[nH]cn2)C(=O)N[C@H](C(=O)N[C@@H](CCCNC(=N)N)C(=O)N[C@@H](CCCNC(=N)N)C(=O)N[C@H](C(=O)N[C@@H](Cc2c[nH]c3ccccc23)C(=O)N[C@@H](CCCNC(=N)N)C(N)=O)C(C)C)C(C)C)NC(=O)[C@H](CC(=O)O)NC(=O)[C@H](CC(C)C)NC1=O (single isomer, unassigned) [FP0777c, Ac-P-Q-R5-I-L-D-MI-H-V-R-R-V-W-R-NH2]
Result string: 0.5 to 5 µM
